# Assay explanation: Plasma pharmacokinetics of co-administered DMT and DMT-d10 by intravenous (bolus), oral gavage and inhalation administration to male rats
# Measurement setup: male, Sprague Dawley, rat, plasma, po, 10 mg/kg, AUC0-t, plasma, Group 2 oral gavage (OG), 10 mg/kg, male rats
Result type: AUC(0-t) (µg·h/mL)
Report the value in µg·h/mL with no unit label.

Task: Reported AUC(0-t) for [2H]C([2H])([2H])N(C([2H])([2H])[2H])C([2H])([2H])C([2H])([2H])c1c[nH]c2ccccc12 [DMT-d10] : what is it?
Output: 0.0772

Task: Reported AUC(0-t) for CN(C)CCc1c[nH]c2ccccc12 [DMT, N,N-dimethyltryptamine] : what is it?
Output: 0.065

Cited source: patent US20240366655A1
